- Tested on: SF-268 CNS
- ASSAY INFO: NCI tumour cell line growth inhibition, 48 h
ATTRIBUTE MEASURED: GI50

Please review the entries below; each comes with its answer.
• O=C(/C=C/C12c3ccccc3C(c3ccccc31)C1C(=O)NC(=O)C12)c1ccccn1 (stereo not drawn) = 1.61 µM
• CC1(C)N=C(N)N=C(N)N1c1ccc(CCC(=O)Nc2ccc(S(=O)(=O)F)cc2)cc1 = 1.31 µM
• COc1cc(CNc2nc3cc(N)cc(N)c3nc2-c2ccccc2)cc(OC)c1 = 5.32 µM

Give the measured GI50 for `Cc1ccc(O)cc1Nc1ccnc2ccc(S(C)(=O)=O)cc12` 2.67 µM

Give the measured GI50 for `Cc1cccc(NC(=O)c2sc3nc4c(cc3c2N)C(=O)CCC4)c1` 3.07 µM

Give the measured GI50 for CC(=O)ON1CCCC(P(=O)(OCOC(=O)C(C)(C)C)OCOC(=O)C(C)(C)C)C1=O (stereo not drawn) 0.746 µM

Give the measured GI50 for `CCn1cc(C(=O)O)c(=O)c2cc(F)c(N3CCN(S(=O)(=O)c4cccc5ccccc45)CC3)cc21` 4.39 µM

Give the measured GI50 for `COc1cc2c(N3CCN(C(=O)Nc4ccc(OC(C)C)cc4)CC3)ncnc2cc1OCCCN1CCCCC1` 16.2 µM

###

- Test system: UACC-62 melanoma
- ASSAY INFO: NCI tumour cell line growth inhibition, 48 h; in the data active = GI50 below about 0.43 µM; inactive = the rest
Would you mind answering with one of these outcomes? true (1) (active), false (0) (inactive)

Look over these answered cases.
- CNCc1cccc2c1OCCOCCOCCN(C)S(=O)(=O)c1ccc(cc1)-c1cnc(N)c(n1)C(=O)N2: false (0)
- Cn1nccc1Nc1nccc(-c2ccn([C@H](CO)c3ccc(Cl)c(F)c3)c(=O)c2)n1: true (1)
- COc1ccc(OC)c(/C=C/c2nc(=S)n(-c3ccc(Cl)cc3)[nH]2)c1: false (0)
- O=C(/C=C/C12c3ccccc3C(c3ccccc31)C1C(=O)NC(=O)C12)c1ccccn1 (stereo not given): false (0)
- CCN=c1sc2c(n1NC(=O)c1cc3ccc1CCc1ccc(cc1)CC3)C(=O)c1ccccc1C2=O: false (0)

In this assay, the call recorded for `CSC1=Nc2c(c(C)c(C)n2COC(CO)CO)C2=NC(=O)CN12` was what? false (0)

In this assay, the call recorded for CCN(CC)Cc1cc(Nc2nc(NC3CCC(N(C)C)CC3)c3ccccc3n2)ccc1OC (stereo not given) was what? false (0)

In this assay, the call recorded for `CCN(CC)CCCNc1ccc(C)c2sc3ccccc3c(=O)c12` was what? true (1)

In this assay, the call recorded for `COc1cc2c(cc1Nc1nc(N3CCc4ccccc43)c3cc[nH]c3n1)N(C(=O)CN(C)C)CC2` was what? false (0)

In this assay, the call recorded for `COc1ccc2c(c1)C(=O)c1c-2c(Nc2ccccc2OC)nc2ccccc12` was what? false (0)

In this assay, the call recorded for `CN[C@@H](C)C(=O)N[C@H]1CN(S(=O)(=O)c2cccc(S(=O)(=O)N3CC[C@H]4CC[C@@H](C(=O)NC(c5ccccc5)c5ccccc5)N4C(=O)[C@@H](NC(=O)[C@H](C)NC)C3)c2)CC[C@H]2CC[C@@H](C(=O)NC(c3ccccc3)c3ccccc3)N2C1=O` was what? false (0)

In this assay, the call recorded for `C[C@]12CC[C@H]3[C@@H](CCC4=CC(=O)CC[C@@]43C)[C@@H]1CC[C@@H]2c1csc(N)n1` was what? false (0)

In this assay, the call recorded for N#CC(C(=O)C(=O)Nc1c(Cl)cccc1Cl)c1ccccc1 (stereo not given) was what? false (0)

In this assay, the call recorded for COC1N(C2CC(O)C(CO)O2)C(=O)NC(=O)C1(F)Br (stereo not given) was what? false (0)

In this assay, the call recorded for CC(=O)ON1CCCC(P(=O)(OCOC(=O)C(C)(C)C)OCOC(=O)C(C)(C)C)C1=O (stereo not given) was what? true (1)

In this assay, the call recorded for `c1ccc(-c2c(-c3ccccc3)[n+](Cc3ccc4ccccc4c3)c(-c3ccc(-c4nc5ccccc5s4)cc3)n2Cc2ccc3ccccc3c2)cc1` was what? true (1)

In this assay, the call recorded for `FC(F)(F)Oc1cccc(-c2cc(NCCCCCCNc3cc(-c4cccc(OC(F)(F)F)c4)nc4ccc(N5CCCC5)cc34)c3cc(N4CCCC4)ccc3n2)c1` was what? false (0)

In this assay, the call recorded for `Cc1c(C(=N)C(C#N)C#N)c(=N)oc2c1ccc1ccccc12` was what? false (0)

In this assay, the call recorded for `COc1cc(CNc2nc3cc(N)cc(N)c3nc2-c2ccccc2)cc(OC)c1` was what? false (0)

In this assay, the call recorded for `COc1cc2nc(-c3ccc(Cl)cc3)cc(OCCCN3CCOCC3)c2cc1OC` was what? false (0)

In this assay, the call recorded for `O=C1/C(=C/c2ccc(Cl)c(Cl)c2)CN(C(=O)CCN2CCC(=NO)CC2)C/C1=C\c1ccc(Cl)c(Cl)c1` was what? false (0)

In this assay, the call recorded for `c1ccc(-c2[nH]ncc2-c2ccnc(-c3ccc(OCCn4ccnc4)cc3)c2)nc1` was what? false (0)
